Data origin, for the record: patent US7566718B2

- TARGET_SYSTEM: human CXCR3 (N-delta 4) (Homo sapiens)
- Construct: CD8 leader (N); Flag tag; expressed in transfected cells; membrane preparation
- Sequence (P49682 5-368 limits assumed): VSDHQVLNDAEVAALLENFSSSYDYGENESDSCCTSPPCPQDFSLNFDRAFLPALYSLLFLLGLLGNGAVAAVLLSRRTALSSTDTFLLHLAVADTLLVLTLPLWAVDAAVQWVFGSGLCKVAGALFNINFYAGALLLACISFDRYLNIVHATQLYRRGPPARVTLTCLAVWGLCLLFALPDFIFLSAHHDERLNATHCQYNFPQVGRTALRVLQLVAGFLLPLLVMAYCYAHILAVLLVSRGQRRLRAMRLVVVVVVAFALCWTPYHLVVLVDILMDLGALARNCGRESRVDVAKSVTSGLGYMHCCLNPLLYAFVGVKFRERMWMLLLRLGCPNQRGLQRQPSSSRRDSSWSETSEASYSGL
- EXPERIMENTAL_DETAILS: Human CXCR3 (N-delta 4) scintillation proximity assay (SPA), [125I] IP-10 binding to Ba/F3-hCXCR3 membranes
- RUN_PARAMETERS: IC50 rating; [125I] IP-10 displacement, human CXCR3; read-out: IC50
pIC50: −log10 of the molar value.
READOUT_LABEL: pIC50

Completed entries (count: 6):
compound=CC[C@H]1CN(c2ncc(NC(C)=O)cc2Cl)CCN1C1CCN(Cc2ccc(Cl)cc2F)CC1 result_value="> 7.60"
compound=CC[C@H]1CN(c2ncc(NS(C)(=O)=O)cc2Cl)CCN1C1CCN(Cc2cccs2)CC1 result_value="< 7.00"
compound=CC[C@H]1CN(c2ncc(NC3=NS(=O)(=O)N=C3NCC3CC3)cc2Cl)CCN1C1CCN(Cc2ccc(Cl)cc2F)CC1 result_value="> 7.60"
compound=C[C@H]1CN(c2ncc(NC(=O)Nc3ccc(F)cc3)cc2Cl)CCN1C1CCN(Cc2ccc(Cl)cc2)CC1 result_value="< 7.00"
compound=CC[C@H]1CN(c2ncc(NS(=O)(=O)C3CC3)cc2Cl)CCN1C1CCN(Cc2ccc(Cl)cc2F)CC1 result_value="> 7.60"
compound=CC[C@H]1CN(c2ncc(NS(C)(=O)=O)cc2Cl)CCN1C1CCN(Cc2ccc(F)cc2)CC1 result_value="7.00 to 7.60"

Per the record, `CC[C@H]1CN(c2ncc(Nc3c(NC4CC4)c(=O)c3=O)cc2Cl)CCN1C1CCN(Cc2ccc(Cl)cc2C#N)CC1` has pIC50 of > 7.60

Per the record, `CC[C@H]1CN(c2ncc([N+](=O)[O-])cc2Cl)CCN1C1CCN([C@H](CO)c2ccc(Cl)cc2)CC1` has pIC50 of > 7.60

Per the record, `CC[C@H]1CN(c2ncc(NS(=O)(=O)NC(=O)OC(C)(C)C)cc2Cl)CCN1C1CCN(Cc2ccc(Cl)cc2F)CC1` has pIC50 of < 7.00

Per the record, `CC[C@H]1CN(c2ncc(N)cc2Cl)CCN1C1CCN(Cc2ccc(Br)cc2F)CC1` has pIC50 of > 7.60

Per the record, `CC[C@H]1CN(c2ncc(NC3=NS(=O)(=O)N=C3NC3CC3)cc2Cl)CCN1C1CCN(Cc2ccc(Cl)cc2-c2nnc[nH]2)CC1` has pIC50 of > 7.60

Per the record, `CC[C@H]1CN(c2ncc(Nc3c(N(C)C)c(=O)c3=O)cc2Cl)CCN1C1CCN([C@H](C(=O)NC)c2ccc(Cl)cc2)CC1` has pIC50 of < 7.00

Per the record, `C[C@@H]1CN(c2ncc(Nc3c(NCC(F)(F)F)c(=O)c3=O)cc2Cl)[C@@H](C)CN1C1CCN(C/C=C/c2ccccc2)CC1` has pIC50 of < 7.00
